- target: T1, human PD-L1 antigen (Beijing Sino Biological Inc, Catalog No. #10084-H08H-100) (human, UniProt Q9NZQ7 19-239)
- T1 construct: Bought antigen; also called the antigen
- T1 sequence (Q9NZQ7 19-239 limits assumed): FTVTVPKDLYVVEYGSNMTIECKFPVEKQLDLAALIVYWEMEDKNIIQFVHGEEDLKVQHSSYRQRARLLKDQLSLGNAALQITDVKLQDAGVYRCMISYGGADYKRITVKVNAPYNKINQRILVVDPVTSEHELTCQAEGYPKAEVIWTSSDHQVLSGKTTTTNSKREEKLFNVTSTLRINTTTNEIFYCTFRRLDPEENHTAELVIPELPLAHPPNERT
- method: BLI (ForteBIO Octet), antibody captured on sensor, human PD-L1 in solution
experimental-endpoint: kon (M⁻¹ s⁻¹)
Give the value in M⁻¹ s⁻¹ but do not write M⁻¹ s⁻¹ after it.

## Input I have this binder here, Antibody II-HX-11 (antibody, human IgG4 S228P, kappa, V domains shown) VH: VQLVQSGAEVKKPGASVKVSCKASGYYTSSPVMHWVRQAPGQGLEWMGYINYFYDGTKYNEKFKGRVTITSDKSASTAYMELSSLRSEDTAVYYCAKSAIAFEYWGQGTLVTVSS VL: TQSPSFLSASVGDRVTITCSASSTVYYMHWFQQKPGKSPKLWIYSTSNLASGVPARFSGSGSGTSYSLTISSLQPEDFATYYCQYRSSYWYTFGQGTKLEIKR , and I need its recorded kon.
## Output 2750

## Input I am curious: what kon value has been reported for Antibody II-HX-19 (antibody, human IgG4 S228P, kappa, V domains shown) VH: VQLVQSGAEVKKPGASVKVSCKASGYYTTSYVMHWVRQAPGQGLEWMGYINHFQDATKYNEKFKGRVTITSDKSASTAYMELSSLRSEDTAVYYCAWSGAIFEYWGQGTLVTVSS VL: TQSPSFLSASVGDRVTITCSASSSGYYMHWFQQKPGKSPKLWIYTTSNLASGVPARFSGSGSGTSYSLTISSLQPEDFATYYCQQRSSYPYTFGQGTKLEIKR ?
## Output 3040

## Input Requested read-out: kon. Entry: Antibody II-HX-13 (antibody, human IgG4 S228P, kappa, V domains shown) VH: VQLVQSGAEVKKPGASVKVSCKASGYSFTSYVMHWVRQAPGQGLEWMGYINPYNDGTKYNEKFKGRVTITSDKSASTAYMELSSLRSEDTAVYYCARSIGITDYWGQGTLVTVSS VL: TQSPSFLSASVGDRVTITCSASSSISYMHWFQQKPGKSPKLWIYSTSNLASGVPARFSGSGSGTSYSLTISSLQPEDFATYYCQQRSSFPYTFGQGTKLEIKR
## Output 3010

## Input If you can, please state the reported kon value of Antibody II-HX-10 (antibody, human IgG4 S228P, kappa, V domains shown) VH: VQLVQSGAEVKKPGASVKVSCKASGYSTSSFVMHWVRQAPGQGLEWMGYINYYNDATKYNEKFKGRVTITSDKSASTAYMELSSLRSEDTAVYYCAWSGAIFEYWGQGTLVTVSS VL: TQSPSFLSASVGDRVTITCSASSSVSYMHWFQQKPGKSPKLWIYSYSNLASGVPARFSGSGSGTSYSLTISSLQPEDFATYYCQNRTSFHYTFGQGTKLEIKR .
## Output 2510

## Input Which kon reading was recorded for the binder Antibody II-HX-18 (antibody, human IgG4 S228P, kappa, V domains shown) VH: VQLVQSGAEVKKPGASVKVSCKASGYYTSSPVMHWVRQAPGQGLEWMGYINPYNDGTKYNEKFKGRVTITSDKSASTAYMELSSLRSEDTAVYYCAKSGGISDYWGQGTLVTVSS VL: TQSPSFLSASVGDRVTITCSASSSASYMHWFQQKPGKSPKLWIYSYSNLASGVPARFSGSGSGTSYSLTISSLQPEDFATYYCQYRTSYPYTFGQGTKLEIKR ?
## Output 3080
